assay: Pharmacokinetics in plasma and urine; type: in vivo, human; settings: human, plasma, oral, 200 mg, t ½,ss, gMean (gCV%), Group II (moderate liver impairment), 200 mg b.i.d. (n = 7), steady state
READOUT: half-life (h)
Note: unit h is implicit; provide only the numeric part.

Any idea what half-life was measured for COC(=O)c1ccc2c(c1)NC(=O)/C2=C(\Nc1ccc(N(C)C(=O)CN2CCN(C)CC2)cc1)c1ccccc1 ?
17.7

###

experiment: Pharmacokinetics in plasma and urine; type: in vivo, human; settings: human, plasma, oral, 150 mg, t ½,ss, gMean (gCV%), Group I (mild liver impairment), 150 mg b.i.d., n = 3, steady state
READOUT: half-life (h)
Note: unit h is implicit; provide only the numeric part.

Any idea what half-life was measured for COC(=O)c1ccc2c(c1)NC(=O)/C2=C(\Nc1ccc(N(C)C(=O)CN2CCN(C)CC2)cc1)c1ccccc1 ?
23.6
